Values from patent US8389505B2

Test system: SW 620 (colon carcinoma)
Test: MTT proliferation assay, SW 620 cells
Assay type: cell-based
Conditions: Homo sapiens, 72 hours incubation, read-out: IC50 (concentration that causes 50% growth inhibition), SW 620
experimental.endpoint: IC50 (µM)

Consider the following illustrative entries.
compound | study.system | IC50 (µM)
C(CN1CCOCCOCCOCCOCCOCC1)CC12CC3CC(CC(C3)C1)C2 [Compound 2, N-[3-(1-adamantyl)propyl]-aza-18-crown-6] | SW 620 (colon carcinoma) | 9
O=C(CC12CC3CC(CC(C3)C1)C2)N1CCOCCOCCN(C(=O)CC23CC4CC(CC(C4)C2)C3)CCOCCOCC1 [Compound 7] | SW 620 (colon carcinoma) | 12
O=C(CCC12CC3CC(CC(C3)C1)C2)N1CCOCCOCCN(C(=O)CCC23CC4CC(CC(C4)C2)C3)CCOCCOCC1 [Compound 8] | SW 620 (colon carcinoma) | 19

(P) O=C(CCC12CC3CC(CC(C3)C1)C2)N1CCOCCOCCOCCOCCOCC1 [Compound 4]
(Q) C1COCCN(CCC23CC4CC(CC(C4)C2)C3)CCOCCOCCN(CCC23CC4CC(CC(C4)C2)C3)CCO1 [Compound 5]
(R) C1COCCOCCN(CCC23CC4CC(CC(C4)C2)C3)CCOCCOCCO1 [Compound 1, N-[2-(1-adamantyl)ethyl]-aza-18-crown-6]
Order the records by IC50, with each subsequent value no larger than the one before. State the ranking by listing the labels in the requested order.
P, R, Q
(P: 13 µM, R: 9 µM, Q: 2.6 µM)
